# TARGET_OF_ASSAY: T1, human LAG3 expressed on cells (human, UniProt P18627 23-525)
# T1 sequence (looked up): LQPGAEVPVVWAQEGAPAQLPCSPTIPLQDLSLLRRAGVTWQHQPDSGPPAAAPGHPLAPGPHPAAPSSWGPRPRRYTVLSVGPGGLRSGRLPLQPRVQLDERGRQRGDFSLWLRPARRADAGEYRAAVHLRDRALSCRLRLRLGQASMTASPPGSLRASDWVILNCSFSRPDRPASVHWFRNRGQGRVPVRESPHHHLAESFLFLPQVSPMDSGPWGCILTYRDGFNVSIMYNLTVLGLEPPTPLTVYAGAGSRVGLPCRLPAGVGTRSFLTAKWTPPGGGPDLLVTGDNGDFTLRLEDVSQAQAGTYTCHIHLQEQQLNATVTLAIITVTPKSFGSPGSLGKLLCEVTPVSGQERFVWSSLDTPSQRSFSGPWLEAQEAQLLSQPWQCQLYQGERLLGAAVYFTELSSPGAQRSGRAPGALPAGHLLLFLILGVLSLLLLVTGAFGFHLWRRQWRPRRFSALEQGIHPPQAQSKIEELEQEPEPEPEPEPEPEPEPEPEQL
# TEST: cell-based or functional assay
So I've got a bunch of binders here, and I need their IL-2, % of BMS, at 0.015241579 ug/mL values.
Just the number please, in %, no unit attached.

Query string: Report IL-2, % of BMS, at 0.015241579 ug/mL for sdAb No. 18 (VHH, Fc of the tested form not described; also called sdAb 18; not shown: Fc part implied by anti-human Fc capture) VHH: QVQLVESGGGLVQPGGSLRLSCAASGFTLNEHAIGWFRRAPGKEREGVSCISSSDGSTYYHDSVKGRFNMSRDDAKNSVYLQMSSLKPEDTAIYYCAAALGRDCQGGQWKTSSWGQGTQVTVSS please.
Result string: 10.9

Query string: Report IL-2, % of BMS, at 0.015241579 ug/mL for sdAb No. 27 (VHH, Fc of the tested form not described; also called sdAb 27; not shown: Fc part implied by anti-human Fc capture and anti-human IgG Fc detection) VHH: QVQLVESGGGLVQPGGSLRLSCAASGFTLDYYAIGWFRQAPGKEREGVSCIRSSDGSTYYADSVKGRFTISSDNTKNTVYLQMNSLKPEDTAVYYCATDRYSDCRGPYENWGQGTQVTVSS please.
Result string: 13.4

Query string: Report IL-2, % of BMS, at 0.015241579 ug/mL for sdAb No. 1 (VHH, the tested form was captured by anti-human Fc, its Fc is not described; also called sdAb 1; not shown: Fc part implied by anti-human Fc capture) VHH: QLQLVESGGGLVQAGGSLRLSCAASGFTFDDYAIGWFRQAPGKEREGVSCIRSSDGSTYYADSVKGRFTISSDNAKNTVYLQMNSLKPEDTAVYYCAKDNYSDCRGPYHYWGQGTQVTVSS please.
Result string: 8.77

Query string: Report IL-2, % of BMS, at 0.015241579 ug/mL for sdAb No. 25 (VHH, Fc of the tested form not described; also called sdAb 25; sdAb #25; not shown: Fc part implied by anti-human Fc capture and anti-human IgG Fc detection) VHH: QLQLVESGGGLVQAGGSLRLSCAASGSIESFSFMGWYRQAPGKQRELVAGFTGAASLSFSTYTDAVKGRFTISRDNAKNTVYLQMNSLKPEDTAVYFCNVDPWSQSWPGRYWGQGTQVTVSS please.
Result string: -0.59

Query string: Report IL-2, % of BMS, at 0.015241579 ug/mL for sdAb No. 17 (VHH, Fc of the tested form not described; also called sdAb 17; not shown: Fc part implied by anti-human Fc capture and anti-human IgG1 Fc detection) VHH: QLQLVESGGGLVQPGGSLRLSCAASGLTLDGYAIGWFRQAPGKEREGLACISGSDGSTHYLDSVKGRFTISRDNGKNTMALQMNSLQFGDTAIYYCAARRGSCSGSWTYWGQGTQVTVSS please.
Result string: 9.56

Query string: Report IL-2, % of BMS, at 0.015241579 ug/mL for sdAb No. 73 (VHH, Fc not described; also called sdAb 73; not shown: Fc part implied by anti-human Fc capture) VHH: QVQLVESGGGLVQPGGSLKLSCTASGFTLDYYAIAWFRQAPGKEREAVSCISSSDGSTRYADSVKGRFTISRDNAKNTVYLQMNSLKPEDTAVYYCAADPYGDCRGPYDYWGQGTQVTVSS please.
Result string: 3.55

Query string: Report IL-2, % of BMS, at 0.015241579 ug/mL for sdAb No. 24 (VHH, Fc of the tested form not described; also called sdAb 24; not shown: Fc part implied by anti-human Fc capture) VHH: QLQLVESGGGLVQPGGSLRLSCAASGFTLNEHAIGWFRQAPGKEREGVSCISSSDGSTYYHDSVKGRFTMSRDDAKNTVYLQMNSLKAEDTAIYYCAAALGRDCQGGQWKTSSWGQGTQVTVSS please.
Result string: 2.74

Query string: Report IL-2, % of BMS, at 0.015241579 ug/mL for sdAb No. 20 (VHH, Fc of the tested form not described; also called sdAb 20; not shown: Fc part implied by anti-human Fc capture) VHH: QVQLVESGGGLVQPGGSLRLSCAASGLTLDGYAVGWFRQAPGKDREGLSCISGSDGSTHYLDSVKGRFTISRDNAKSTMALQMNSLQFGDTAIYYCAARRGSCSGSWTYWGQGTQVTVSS please.
Result string: 9.36

Query string: Report IL-2, % of BMS, at 0.015241579 ug/mL for sdAb No. 21 (VHH, Fc of the tested form not described; also called sdAb 21; not shown: Fc part implied by anti-human Fc capture) VHH: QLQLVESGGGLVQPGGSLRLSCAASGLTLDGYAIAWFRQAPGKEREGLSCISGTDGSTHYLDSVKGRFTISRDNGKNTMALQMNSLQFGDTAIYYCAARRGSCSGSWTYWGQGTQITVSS please.
Result string: 13.7
